System: MRSA
assayName: Kill or inhibit growth/proliferation; morphology, biofilm and growth disruption (Tables 5, 6); also: test concentration or dose not given here
Format: cell-based, Methicillin-resistant Staphylococcus aureus
Set-up: key: A: Peptide aggregates; B: Less hyphal formation; Clumps; Diffuse clumps and small polyps; F: Diffuse growth; H: Thin; I: Growth inhibition; Microcolony formation; Rippled; Small polyps; Thick; W: Halo formation on top, microlonies on bottom
measurementKind: Organism, effect

Some substances with known Organism, effect results, for comparison:
• PF-553: peptide having multiple activities (chain 1 LTIVGNALQQKNQKLLLNQKKITSLG; chain 2 LTIVGNALQQKNQKLLLNQKKITSLG; Peptide with targeting and/or antimicrobial activity) = MRSA (M)
• PF-565 (RAEAEAQRQAEADAKRKAEEAARL; Peptide with targeting and/or antimicrobial activity) = MRSA (C)
• PF-605: peptide having multiple activities (HYRWNTQWWKY; Peptide with targeting and/or antimicrobial activity) = MRSA (C)
• PF-140: peptide having multiple activities (FHRRVIRASEWALTTRSFSTPLRSAAR; Peptide with targeting and/or antimicrobial activity) = MRSA (M)
• PF-379: peptide having multiple activities (chain 1 VFVVLFIIYLASKLLTKLFPIKK; chain 2 VFVVLFIIYLASKLLTKLFPIKK; Peptide with targeting and/or antimicrobial activity) = MRSA (C)

Exercise: Quick one: Organism, effect of PF-074: peptide having multiple activities (RDIHPIYFMTKD; Peptide with targeting and/or antimicrobial activity) ?
Key: MRSA (M)

Exercise: Quick one: Organism, effect of PF-076: peptide having multiple activities (LYQYELLSKEEYLKCTLIINQRRNEQK; Peptide with targeting and/or antimicrobial activity) ?
Key: MRSA (R)

Exercise: Quick one: Organism, effect of PF-382: peptide having multiple activities (chain 1 KYKCSWCKRVYTLRKDHKTAR; chain 2 KYKCSWCKRVYTLRKDHKTAR; Peptide with targeting and/or antimicrobial activity) ?
Key: MRSA (M)

Exercise: Quick one: Organism, effect of PF-627: peptide having multiple activities (INDLLSYFTLHEK; Peptide with targeting and/or antimicrobial activity) ?
Key: MRSA (R)

====

System: S. pneumoniae
assayName: Kill or inhibit growth/proliferation; morphology, biofilm and growth disruption (Tables 5, 6); also: test concentration or dose not given here
Format: cell-based, Streptococcus pneumoniae
Design: key: A: Peptide aggregates; B: Less hyphal formation; Clumps; Diffuse clumps and small polyps; F: Diffuse growth; H: Thin; I: Growth inhibition; Microcolony formation; Rippled; Small polyps; Thick; W: Halo formation on top, microlonies on bottom
measurementKind: Organism, effect

* PF-585: peptide having multiple activities (DYNHLLNVVQDWVNTN; Peptide with targeting and/or antimicrobial activity) | S. pneumoniae (R)
* PF-419 (VVTGKVGSLPQIK; Peptide with targeting and/or antimicrobial activity) | S. pneumoniae (H)
* PF-427: peptide having multiple activities (YVLEYHGLRATQDVDAFMAL; Peptide with targeting and/or antimicrobial activity) | S. pneumoniae (R)
* CGKLLEQKNFFLKTR [PF-521] | S. pneumoniae (H)
* PF-466: peptide having multiple activities (chain 1 VRKSDQ; chain 2 VRKSDQ; Peptide with targeting and/or antimicrobial activity) | S. pneumoniae (H)

Exercise: Quick one: Organism, effect of PF-595: peptide having multiple activities (LQNKIYELLYIKERSKLCS; Peptide with targeting and/or antimicrobial activity) ?
Key: S. pneumoniae (R)

Exercise: Quick one: Organism, effect of PF-558: peptide having multiple activities (chain 1 ADAPPPLIVRYS; chain 2 ADAPPPLIVRYS; Peptide with targeting and/or antimicrobial activity) ?
Key: S. pneumoniae (R)

Exercise: Quick one: Organism, effect of EILNNNQVIKELTMKYKTQFESNLGGWTARARR [PF-580] ?
Key: S. pneumoniae (C)

Exercise: Quick one: Organism, effect of PF-431: peptide having multiple activities (VAYAAICWW; Peptide with targeting and/or antimicrobial activity) ?
Key: S. pneumoniae (R)
